# Tested on: HepG2 cells
# TEST PROTOCOL: Cellular uptake assay of AF488-labeled antibody (HepG2)
# Format: cell-based
# CONDITION PARAMETERS: HepG2 cells, 100 nM AF488-labeled antibody, 37° C. for 6 hours; class symbols; read-out: Uptake Assay EC50
Parameter: EC50. Scope: all listed entries.

Example cases with answers are listed next.
- COMPOUND STRUCTURE STRING: "CC(C)C[C@@H]1NC(=O)[C@H](Cc2cnc[nH]2)NC(=O)[C@H](Cc2c[nH]c3ccccc23)NC(=O)[C@H](C)NC(=O)[C@@H]2CSSC[C@H](NC(=O)[C@H](Cc3c[nH]c4ccccc34)NC(=O)[C@H](C(C)C)NC(=O)[C@H](CC(C)C)NC(=O)[C@H](CCC(=O)O)NC(=O)CNC1=O)C(=O)N[C@@H]([C@@H](C)O)C(=O)N1CCC[C@@H]1C(=O)N1C[C@@H](NC(=O)CCCc3cn(C[C@H]4OC[C@H](Nc5cncc(C(F)(F)F)n5)[C@@H](O)[C@H]4O)nn3)C[C@H]1C(=O)N[C@@H](CC(=O)O)C(=O)N2"
  TEST SYSTEM: "HepG2 cells"
  RESULT: "< 100 nM"
- COMPOUND STRUCTURE STRING: "CC(C)C[C@@H]1NC(=O)[C@H](Cc2c[nH]cn2)NC(=O)[C@H](Cc2c[nH]c3ccccc23)NC(=O)[C@H](C)NC(=O)[C@@H]2CSSC[C@H](NC(=O)[C@H](Cc3c[nH]c4ccccc34)NC(=O)[C@H](C(C)C)NC(=O)[C@H](CC(C)C)NC(=O)[C@H](CCC(=O)O)NC(=O)CNC1=O)C(=O)N[C@@H]([C@@H](C)O)C(=O)N1CCC[C@@H]1C(=O)N1C[C@@H](NC(=O)CCOCCOCCNC(=O)CCCc3cn(C[C@@]45CO[C@@H](O4)[C@H](Nc4nc(Cl)ns4)[C@@H](O)[C@H]5O)nn3)C[C@H]1C(=O)N[C@@H](CC(=O)O)C(=O)N2"
  TEST SYSTEM: "HepG2 cells"
  RESULT: "100 to 500 nM"
- COMPOUND STRUCTURE STRING: "CC(C)C[C@@H]1NC(=O)[C@H](Cc2cnc[nH]2)NC(=O)[C@H](Cc2c[nH]c3ccccc23)NC(=O)[C@H](C)NC(=O)[C@@H]2CSSC[C@H](NC(=O)[C@H](Cc3c[nH]c4ccccc34)NC(=O)[C@H](C(C)C)NC(=O)[C@H](CC(C)C)NC(=O)[C@H](CCC(=O)O)NC(=O)CNC1=O)C(=O)N[C@@H]([C@@H](C)O)C(=O)N1CCC[C@@H]1C(=O)N1C[C@@H](NC(=O)COCCOCC(=O)NC[C@H]3OC[C@H](Nc4cncc(C(F)(F)F)n4)[C@@H](O)[C@H]3O)C[C@H]1C(=O)N[C@@H](CC(=O)O)C(=O)N2"
  TEST SYSTEM: "HepG2 cells"
  RESULT: "< 100 nM"
- COMPOUND STRUCTURE STRING: "CC(C)C[C@@H]1NC(=O)[C@H](Cc2c[nH]cn2)NC(=O)[C@H](Cc2c[nH]c3ccccc23)NC(=O)[C@H](C)NC(=O)[C@@H]2CSSC[C@H](NC(=O)[C@H](Cc3c[nH]c4ccccc34)NC(=O)[C@H](C(C)C)NC(=O)[C@H](CC(C)C)NC(=O)[C@H](CCC(=O)O)NC(=O)CNC1=O)C(=O)N[C@@H]([C@@H](C)O)C(=O)N1CCC[C@@H]1C(=O)N1C[C@@H](NC(=O)CCOCCOCCOCCNC(=O)CCCc3cn(C[C@@]45CO[C@@H](O4)[C@H](Nc4nc(Cl)ns4)[C@@H](O)[C@H]5O)nn3)C[C@H]1C(=O)N[C@@H](CC(=O)O)C(=O)N2"
  TEST SYSTEM: "HepG2 cells"
  RESULT: "< 100 nM"

Please look at the following molecule next.
Let me know recorded EC50 for CC(C)C[C@@H]1NC(=O)[C@H](Cc2cnc[nH]2)NC(=O)[C@H](Cc2c[nH]c3ccccc23)NC(=O)[C@H](C)NC(=O)[C@@H]2CSSC[C@H](NC(=O)[C@H](Cc3c[nH]c4ccccc34)NC(=O)[C@H](C(C)C)NC(=O)[C@H](CC(C)C)NC(=O)[C@H](CCC(=O)O)NC(=O)CNC1=O)C(=O)N[C@@H]([C@@H](C)O)C(=O)N1CCC[C@@H]1C(=O)N1C[C@@H](NC(=O)CCOCCNC(=O)CCCc3cn(C[C@@]45CO[C@@H](O4)[C@H](Nc4nc(Cl)ns4)[C@@H](O)[C@H]5O)nn3)C[C@H]1C(=O)N[C@@H](CC(=O)O)C(=O)N2 , thanks.
100 to 500 nM
